Provide the reported IC50 of each item.
# measurement_notes: Antagonist activity at P2Y12 receptor assessed as inhibition of ADP-induced human platelet aggregation by washed platelet assay

Please look up its IC50: O=C(Nc1ccccc1)Nc1ncnc2c1ncn2[C@@H]1O[C@H](COP(=O)(O)OP(=O)(O)O)[C@@H](O)[C@H]1O
10.8 µM

Cool, now Nc1ncnc2c1ncn2[C@@H]1O[C@H](COP(=O)(O)O)[C@H]2OC(/C=C/c3ccccc3)O[C@H]21 (some centres not stated)
45.1 µM

Moving on to O=c1ccn([C@@H]2O[C@H](COP(=O)(O)OP(=O)(O)OP(=O)(O)OP(=O)(O)OC[C@@H]3O[C@H](n4ccc(=O)[nH]c4=O)[C@H]4OC(Cc5ccccc5)O[C@H]43)[C@H]3OC(Cc4ccccc4)O[C@H]32)c(=O)[nH]1 (some centres not stated)
1.82 µM

And CCCCCCCC1O[C@@H]2[C@H](O1)[C@@H](COP(=O)(O)OP(=O)(O)OP(=O)(O)OP(=O)(O)OC[C@@H]1O[C@H](n3ccc(=O)[nH]c3=O)[C@@H](O)[C@H]1O)O[C@H]2n1ccc(=O)[nH]c1=O (some centres not stated) ?
16.9 µM

Also check O=c1ccn([C@@H]2O[C@H](COP(=O)(O)OP(=O)(O)OP(=O)(O)OP(=O)(O)OC[C@@H]3O[C@H](n4ccc(=O)[nH]c4=O)[C@H]4OC(/C=C/c5ccccc5)O[C@H]43)[C@H]3OC(/C=C/c4ccccc4)O[C@H]32)c(=O)[nH]1 (some centres not stated)
3.3 µM

Note, next up: CCCCCCNC(=O)Nc1ncnc2c1ncn2[C@@H]1O[C@H](COP(=O)(O)O)[C@H]2OC(/C=C/c3ccccc3)O[C@H]21 (some centres not stated)
0.237 µM

How about this molecule: CCNC(=O)Nc1ncnc2c1ncn2[C@@H]1O[C@H](COP(=O)(O)O)[C@H]2OC(c3ccccc3)O[C@H]21 (some centres not stated)
0.013 µM

Next molecule up: O=C(Nc1ccccc1)Nc1ncnc2c1ncn2[C@@H]1O[C@H](COP(=O)(O)O)[C@@H](O)[C@H]1O
3.11 µM

Next molecule: O=C(Nc1ccc(F)cc1)Nc1ccn([C@@H]2O[C@H](COP(=O)(O)OP(=O)(O)OP(=O)(O)OP(=O)(O)OC[C@@H]3O[C@H](n4ccc(=O)[nH]c4=O)[C@@H](O)[C@H]3O)[C@H]3O[C@@H](Cc4ccccc4)O[C@H]32)c(=O)n1
12.9 µM

And the next one, O=C(Nc1ccccc1)Nc1ncnc2c1ncn2[C@@H]1O[C@H](COP(=O)(O)O)[C@H]2OC(C#Cc3ccccc3)O[C@H]21 (some centres not stated) ?
0.288 µM

Okay, and O=c1ccn([C@@H]2O[C@H](COP(=O)(O)OP(=O)(O)OP(=O)(O)OP(=O)(O)OC[C@@H]3O[C@H](n4ccc(=O)[nH]c4=O)[C@H]4OC(c5ccccc5)O[C@H]43)[C@H]3OC(c4ccccc4)O[C@H]32)c(=O)[nH]1 (some centres not stated) ?
8.29 µM

Item: O=C(Nc1ccccc1)Nc1ncnc2c1ncn2[C@@H]1O[C@H](COP(=O)(O)OP(=O)(O)O)[C@H]2O[C@@H](Cc3ccccc3)O[C@H]21
0.052 µM
